Just for reference, paper PMC5540273 is where these values come from.

# System: NEK4
# Test Parameters: concentration: 1 μM, replicates: in singlicate; n = 1;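 also: KINOMEscan kinase panel screen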
Catalogue of %Inh values
Supply the numeric figure in %, leaving out any unit text.

Below, 3 molecules whose answers are already recorded.
Cl.Nc1ncnc2occ(-c3ccc(NC(=O)Nc4cc(C(F)(F)F)ccc4F)cc3)c12 [SB-707548] ... 5
Cl.Oc1cccc(Nc2ccnc3cc(-c4ccncc4)ccc23)c1 [GW494601] ... 0
Cc1nnc(-c2ccc(C)c(-c3ccc(C(=O)Nc4ccc(NS(C)(=O)=O)cc4)cc3)c2)o1 [GW702865] ... 0

Let us move to another entry and its %Inh.
Given the entry CC(=O)Nc1ccc(COc2ccc(Nc3ccnc4cc(-c5ccccn5)ccc34)cc2)cc1.Cl [GW440148] , report its measured %Inh. 0

* * *

The entries below are paired with their reported %Inh.
# Tested on: KIT-autoinhibited
# Test Parameters: concentration: 1 μM, replicates: in singlicate; n = 1
Just the number in %, nothing appended.

Observe how each entry below is paired with its result.
Cc1ccc(NC(=O)c2ccnc(N3CCN(C)CC3)c2)cc1-c1ccc(C(=O)NCC2CC2)cc1 ... 0
O=c1cc(N2CCOCC2)nc2n(Cc3cccc(Cl)c3Cl)c(C3CC3)nn12 ... 15
COCCNC(=O)c1ccc(-c2cc(C(=O)NC3CC3)cc(F)c2C)cc1 ... 24
CC(C)Oc1ccc2c(-c3ccnc(Nc4ccc(N5CCN(C)CC5)cc4)n3)cnn2n1 ... 43
COc1cc(Nc2nccc(N3CCC(NC(=O)c4cccc(NC(C)=O)c4)C3)n2)cc(OC)c1OC (stereo not shown) ... 8

For the compound N#Cc1ccc(-c2cc(-c3c[nH]nc3-c3ccccn3)ccn2)cc1 , what %Inh is on record? 5

For Fc1ccc(-c2ncn(CCCN3CCOCC3)c2-c2cccnc2)cc1 then? 18

Input CNc1ncnc2[nH]ncc12 20

Ok, now COc1cc2ncn(-c3cc(OCc4sccc4Cl)c(C(N)=O)s3)c2cc1OC 0

Could you do the same for c1ccc(-c2n[nH]cc2-c2ccnc3ccccc23)nc1 , please? 11

Next up: Nc1nc(-c2ccc3c(N)n[nH]c3c2)cc(N2CCCC2)n1 0

Then Cc1nnc(-c2ccc(C)c(-c3ccc(C(=O)Nc4ccc(NS(C)(=O)=O)cc4)cc3)c2)o1 ? 0

Field entry: CCCCCc1nc2c(N)ncnc2n1CCCCC 16

For CN1c2ccc(CNc3ccc(F)cc3)cc2-c2c(cnn2C)S1(=O)=O then? 15

Next up: CCc1nc(-c2cccc(C)c2)c(-c2ccnc(NCc3ccccc3)c2)s1 0

# repeat for Nc1nccc(-c2c(-c3ccc(F)cc3)ncn2C2CCN(CC(F)(F)F)CC2)n1 11

Same for COc1cc2c(cc1OC[C@@H](O)CO)ncc1c3ccc(C#N)cc3[nH]c21 48

Repeat with Cc1cccc(-c2nc(Nc3ccc4ncsc4c3)c3ccccc3n2)n1 12

// query: O=C(NCCNc1ccnc(Nc2ccc(F)cc2)n1)Nc1ccccc1F 0

* * *

# System: YANK1
# Construct: gene STK32A
# Test Parameters: concentration: 1 μM, replicates: in singlicate; n = 1
Readout Kind: %Inh (%)
The reply should be a number in %, with the unit left off.

Cl.Oc1cccc(Nc2ccnc3cc(-c4ccncc4)ccc23)c1 ... 33

Please report the recorded %Inh for O=c1cc(N2CCOCC2)nc2n(Cc3cccc(Cl)c3Cl)c(C3CC3)nn12 . 0

Try the compound Fc1ccc(-c2nn3c(OCC(F)(F)F)cccc3c2-c2ccncc2)cc1 30

Cc1cccc(-c2nc(Nc3ccc4ncsc4c3)c3ccccc3n2)n1 ? 0

Try the compound CN(C1=C(c2ccccc2)C(=O)NC1=O)c1ccccc1 0

Same lookup for O=c1cc(N2CCOCC2)nc2n(Cc3cccc(F)c3)ccn12 , please. 7
